Consider the following compounds; for each one, report its pEC50.
TESTED_SYSTEM: human FPRL2 (Homo sapiens)
Sequence (P25089 1-353): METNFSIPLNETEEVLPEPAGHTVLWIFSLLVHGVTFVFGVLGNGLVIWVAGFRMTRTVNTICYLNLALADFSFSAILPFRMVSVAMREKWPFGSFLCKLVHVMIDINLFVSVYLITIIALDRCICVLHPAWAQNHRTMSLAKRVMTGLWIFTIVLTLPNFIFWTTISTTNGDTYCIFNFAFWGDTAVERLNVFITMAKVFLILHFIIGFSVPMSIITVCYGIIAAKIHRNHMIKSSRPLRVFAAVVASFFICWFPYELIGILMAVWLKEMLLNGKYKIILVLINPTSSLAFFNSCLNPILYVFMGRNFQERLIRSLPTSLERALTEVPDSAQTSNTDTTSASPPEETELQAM
ASSAY_DETAILS: Intracellular calcium measurements (FLIPR), agonistic activity in HEK293-hFPRL2-Gα16 cells
CONDITION_NOTES: Fluo-4 calcium FLIPR, normalized to GLY14-Humanin 100 nM
// returns pEC50 (minus log10 of molar concentration), number only

Req: // lookup pEC50 for O=C(NCCCCN1CCCC1)[C@H]1[C@H](C(=O)NCCc2ccc3c(c2)OCO3)[C@@H]2C=C[C@H]1C21CC1 (racemic) [Example 383]
Resp: 7.54

Req: // lookup pEC50 for O=C(NCCCO)[C@H]1[C@H](C(=O)Nc2ccc(Br)cc2)[C@@H]2CC[C@H]1C21CC1 (racemic) [Example 107]
Resp: 5.64

Req: // lookup pEC50 for CCOc1ccc(CNC(=O)C2C(C(=O)NCCCCN3CCCC3)C3C=CC2C32CC2)cc1 (stereo not drawn) [Example 386]
Resp: 6.60

Req: // lookup pEC50 for O=C(NCCCCN1CCCC1)[C@H]1[C@H](C(=O)NCc2c(F)ccc(F)c2Cl)[C@@H]2C=C[C@H]1C21CC1 (racemic) [Example 371]
Resp: 6.57

Req: // lookup pEC50 for O=C(CCc1ccc(F)cc1)NC[C@H]1[C@H](C(=O)Nc2ccc(Br)cc2)[C@@H]2C=C[C@H]1C21CC1 (racemic) [Example 188]
Resp: 5.72
